- assay-info: yeast display, Sf9 membrane polyspecificity reagent, FACS + sequencing; frameworks hold sequencing errors

seq-string | polyreactivity (PSR sort gate)
QVQLVESGGGLVQAGGSLRLICAASGFTFTGNAMGWYRQAPGKERELVAAITRGGSTKYADSVKGRITISRDNAMHTVYLQMNSLKPEDTAVYYCAAGVRYYRYYYWGQGTQVTVSS | high polyreactivity
QVQLHESGCGLVQAGGSLRLSCAASGTISYAGPMGWYRPAPGNEREFVAGIGVGSNTNYADSVKGRYTIIRDNATNTVYLQMNSLKPEDTAVYYCAVGGYAPLGRPYWGQGTQVTVSS | low polyreactivity
QVQLVESGGGLVQAGGSLRLSCAASGRIFPYYAMGWYRQAPGKEREFVAAITSSGGTTYYADSVKGRFTISRDNAKNTVYLQMNSLKPEDTAVYYCFAVRLYALYAGRPYDYWGQGTQVTVSS | low polyreactivity
QVQLVESGAGLVQAGGSLRLSCAASGSTFKPNVMGWYRQAPGKERELVAAITSTDDRTYYADSVKGRFTISRDNAKNTVYLQMNSLKPEDTAVYYCAVESLRDDFEYDYWGQGTQVTVSS | low polyreactivity
QVQLVESGGGLVQAGGSLRLSCAASGRIFQQYAMGWYRQAPGKEREVVAAISRGGSTYYADSVKGRFTISRDNAKNTVYLQMNSLKPEDTAVYYCAVRSRRGLKYDYWGQGTQVTVSS | high polyreactivity
QVQLQESGGGLVQAGGSLRLSCAASGSIFADVQMGWYRQAPGKELELVASINFRGTTTYYADSVKGRFTISRDNAKNTVYLQMSSLKPEDNAVYYCAVGRSEGGDFAYWGQGTHVTVSS | low polyreactivity
QVQLVESGGGLVQAGGSLRLSCAASGGTFSPNTMGWYRHAPGKERELVAAISSSGSTSYADSVKGRFTISRDNAKNTVYLQMNSLKPEDTAVYYCNADDTISYYASGFDNYDYWGQGSQVTVSS | low polyreactivity
QVQLVESGGGLVQAGGSLRLSCAASGNIFDQNAMGWYRQAPAKERELVAAITRSGSTTYYADSVKGRFTISRDNAKNTVYLQMNSLKPEDTAVYYCAAKVYAYRTYKMYYWGEGTQVTVSS | high polyreactivity
QVQLVESGGGLVQAGGSLRLSCAASGLTFAWNDMGWYRQAPGKERELVAAISIIGTTYYADSVKGRFTISRDNAKNTVYLQMNSLKREDTAVYYCAKTGFLGLRQYGYWGQGTQVTVSS | high polyreactivity
QVQLVESGGGLVQAGGSLRLSCAASGRIIALNAMGWYRQAPGKERELVAAISRRGGSTYYADSVKGRFTISRDNAKNTVYLQMNSLKPEDTAVYYCATDSVRYGYDYWGQGTQVTVSS | high polyreactivity
QVQLVESGGGLVQAGGSLRLSCAASGSIFSRYTMGWYRQATGKERELVAAITSSGGSTYYADSVKGRFTISRDNAKNTVYLQMNSLKPEDTAVYYCNAVRRQWYWTAWFSARGYGYWGQGTQVTVSS | high polyreactivity

Cited source: the nanobody polyreactivity screen of Harvey et al. (2022)
